Molecular target: Zap-70 (Homo sapiens)
Construct: Kinases are expressed as either kinase domains or full length constructs; made in house
Sequence (P43403 1-619): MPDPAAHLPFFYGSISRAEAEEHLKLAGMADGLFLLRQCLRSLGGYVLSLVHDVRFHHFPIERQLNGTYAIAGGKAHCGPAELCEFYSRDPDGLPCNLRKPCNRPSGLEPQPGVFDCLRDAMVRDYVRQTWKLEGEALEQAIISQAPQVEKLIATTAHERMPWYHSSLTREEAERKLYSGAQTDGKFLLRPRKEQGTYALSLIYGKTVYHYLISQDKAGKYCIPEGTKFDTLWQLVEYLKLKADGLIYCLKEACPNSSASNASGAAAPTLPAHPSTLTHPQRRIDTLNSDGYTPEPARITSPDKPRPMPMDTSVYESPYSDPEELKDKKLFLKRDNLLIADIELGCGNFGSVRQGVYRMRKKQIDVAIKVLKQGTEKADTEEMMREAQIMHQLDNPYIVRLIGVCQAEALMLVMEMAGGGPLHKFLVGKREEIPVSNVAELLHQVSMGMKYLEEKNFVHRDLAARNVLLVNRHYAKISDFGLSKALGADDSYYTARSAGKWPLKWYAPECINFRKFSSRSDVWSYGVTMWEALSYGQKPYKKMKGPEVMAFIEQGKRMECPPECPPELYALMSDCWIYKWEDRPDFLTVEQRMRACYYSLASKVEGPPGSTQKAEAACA
Experiment: Kinase inhibition assay (33P transfer), Zap-70
Assay type: biochemical
Conditions: read-out: Zap-1
measuredAttribute: IC50

Okay, here is my list. What is IC50 for each of these?
1. Nc1nc2ccccc2n1-c1ncnc(Nc2cccc(Cl)c2)n1
2. COc1cc(Nc2ncnc(Nc3cccc(C(F)(F)F)c3)n2)cc(OC)c1OC

["7.11 to 10.4 µM", "> 10.7 µM"]

Okay, here is my list. What is IC50 for each of these?
1. COc1cc(Nc2ncnc(-n3c(NCc4nc5ccccc5[nH]4)nc4ccccc43)n2)cc(OC)c1OC
2. CC(C)(C)OC(=O)NCc1cccc(Nc2ncnc(Nc3cc(-c4ccco4)n[nH]3)n2)c1

1: > 8.6 µM; 2: > 10 µM
